System: 885724-159-R-J1-PDC KRAS PDC multicell spheroid viability
Experiment: Anticancer human tumor 885724-159-R-J1-PDC patient-derived pancreatic adenocarcinoma cell line growth inhibition [KRAS2]; active = viability on the fitted dose curve at most 10% of control; inactive = the rest
Details: second compound 1 µM; first compound 0.01 µM
From the text: Multicellular complex tumor spheroid response to RAS pathway inhibitors in combination with a targeted agents in patient-derived cell lines with oncogenic KRAS variants from multiple cancer types A high-throughput screen of multi-cell type tumor spheroids was designed to identify active combinations of targeted small molecules and KRAS pathway inhibitors. […] Compounds. […] If the clinical Cmax for an agent had not been determined, the highest concentration tested was 10 microM. […]
Use one of these outcomes when replying: Yes = active, No = inactive

Problem: Kindly provide the recorded test outcome for the following compound: CN(C)C/C=C/C(=O)Nc1cc2c(Nc3ccc(F)c(Cl)c3)ncnc2cc1O[C@H]1CCOC1 + COc1cc2nc(C)nc(NC(C)c3cc(N)cc(C(F)(F)F)c3)c2cc1OC1CCOC1
Result: No

Problem: Kindly provide the recorded test outcome for the following compound: CC(=O)Nc1cccc(-n2c(=O)n(C3CC3)c(=O)c3c(Nc4ccc(I)cc4F)n(C)c(=O)c(C)c32)c1 + CNCc1ccccc1-c1csc(C(C)Nc2nc(C)nc3cc(OC)c(OC)cc23)c1
Result: Yes

Problem: Kindly provide the recorded test outcome for the following compound: CC(=O)Nc1cccc(-n2c(=O)n(C3CC3)c(=O)c3c(Nc4ccc(I)cc4F)n(C)c(=O)c(C)c32)c1 + C=CC(=O)N1CCN(c2nc(OCC3CCCN3C)nc3c2CCN(c2cccc4cccc(C)c24)C3)CC1CC#N
Result: No

Problem: Kindly provide the recorded test outcome for the following compound: CC1COCCN1c1cc(-c2ccnn2C)c2ccnc(-c3ccn[nH]3)c2n1 (centres undefined) + CNCc1ccccc1-c1csc(C(C)Nc2nc(C)nc3cc(OC)c(OC)cc23)c1
Result: No

Problem: Kindly provide the recorded test outcome for the following compound: CC(=O)Nc1cccc(-n2c(=O)n(C3CC3)c(=O)c3c(Nc4ccc(I)cc4F)n(C)c(=O)c(C)c32)c1 + COc1cc2nc(C)nc(NC(C)c3cc(N)cc(C(F)(F)F)c3)c2cc1OC1CCOC1
Result: No

Problem: Kindly provide the recorded test outcome for the following compound: CC1COCCN1c1cc(-c2ccnn2C)c2ccnc(-c3ccn[nH]3)c2n1 (centres undefined) + COc1cc2nc(C)nc(NC(C)c3cc(N)cc(C(F)(F)F)c3)c2cc1OC1CCOC1
Result: No

Problem: Kindly provide the recorded test outcome for the following compound: CC(=O)Nc1cccc(-n2c(=O)n(C3CC3)c(=O)c3c(Nc4ccc(I)cc4F)n(C)c(=O)c(C)c32)c1 + C=CC(=O)N1CCN(c2nc(=O)n(-c3c(C)ccnc3C(C)C)c3nc(-c4c(O)cccc4F)c(F)cc23)C(C)C1
Result: No

Problem: Kindly provide the recorded test outcome for the following compound: CC(=O)OC12COC1CC(O)C1(C)C(=O)C(O)C3=C(C)C(OC(=O)C(O)C(NC(=O)OC(C)(C)C)c4ccccc4)CC(O)(C(OC(=O)c4ccccc4)C21)C3(C)C (centres undefined) + CNCc1ccccc1-c1csc(C(C)Nc2nc(C)nc3cc(OC)c(OC)cc23)c1
Result: No

Problem: Kindly provide the recorded test outcome for the following compound: CC(C)n1nc(-c2ccc3oc(N)nc3c2)c2c(N)ncnc21 + COc1cc2nc(C)nc(NC(C)c3cc(N)cc(C(F)(F)F)c3)c2cc1OC1CCOC1
Result: No

---

Assignment: determine reported viability, T/C for the given compounds.
tested on: 885724-159-R-J1-PDC KRAS PDC multicell spheroid viability; assay: Anticancer human tumor 885724-159-R-J1-PDC cell line growth inhibition [KRAS2]; conditions: second compound 0.316 µM; first compound 0.001 µM; stronger effect = lower value;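 also: spheroids exposed to agents for 7 days before readout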

The reported value for CC(C)n1nc(-c2ccc3oc(N)nc3c2)c2c(N)ncnc21 + COc1cc2nc(C)nc(NC(C)c3cc(N)cc(C(F)(F)F)c3)c2cc1OC1CCOC1 in terms of viability, T/C is 75.8%

The reported value for CC(=O)Nc1cccc(-n2c(=O)n(C3CC3)c(=O)c3c(Nc4ccc(I)cc4F)n(C)c(=O)c(C)c32)c1 + CNCc1ccccc1-c1csc(C(C)Nc2nc(C)nc3cc(OC)c(OC)cc23)c1 in terms of viability, T/C is 43.9%

The reported value for CC(C)n1nc(-c2ccc3oc(N)nc3c2)c2c(N)ncnc21 + CNCc1ccccc1-c1csc(C(C)Nc2nc(C)nc3cc(OC)c(OC)cc23)c1 in terms of viability, T/C is 75.3%

The reported value for Cn1ncnc1[C@H]1c2n[nH]c(=O)c3cc(F)cc(c23)N[C@@H]1c1ccc(F)cc1 + CC1OCC2(CCN(c3cnc(Sc4ccnc(N)c4Cl)c(N)n3)CC2)C1N in terms of viability, T/C is 78%

The reported value for Cn1ncnc1[C@H]1c2n[nH]c(=O)c3cc(F)cc(c23)N[C@@H]1c1ccc(F)cc1 + C=CC(=O)N1CCN(c2nc(=O)n(-c3c(C)ccnc3C(C)C)c3nc(-c4c(O)cccc4F)c(F)cc23)C(C)C1 in terms of viability, T/C is 115%

The reported value for CN(C)C/C=C/C(=O)Nc1cc2c(Nc3ccc(F)c(Cl)c3)ncnc2cc1O[C@H]1CCOC1 + CC1OCC2(CCN(c3cnc(Sc4ccnc(N)c4Cl)c(N)n3)CC2)C1N in terms of viability, T/C is 102%

---

Assignment: determine reported IC50 for the given compounds.
test system: 885724-159-R-J1-PDC KRAS PDC multicell spheroid viability; assay: Anticancer human tumor 885724-159-R-J1-PDC cell line growth inhibition [KRAS2]; conditions: curve of first compound; second compound 10 µM;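 also: spheroids exposed to agents for 7 days before readout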
Quick reminder: number only, in µM, skip the unit.

Per the reported 885724-159-R-J1-PDC KRAS PDC multicell spheroid viability data, CC1COCCN1c1cc(-c2ccnn2C)c2ccnc(-c3ccn[nH]3)c2n1 (stereo not given) + C=CC(=O)N1CCN(c2nc(=O)n(-c3c(C)ccnc3C(C)C)c3nc(-c4c(O)cccc4F)c(F)cc23)C(C)C1 has IC50 of 0.222

Per the reported 885724-159-R-J1-PDC KRAS PDC multicell spheroid viability data, CC(C)NCC(C(=O)N1CCN(c2ncnc3c2C(C)CC3O)CC1)c1ccc(Cl)cc1 (stereo not given) + CC1OCC2(CCN(c3cnc(Sc4ccnc(N)c4Cl)c(N)n3)CC2)C1N has IC50 of 0.1

Per the reported 885724-159-R-J1-PDC KRAS PDC multicell spheroid viability data, COc1cc2nccc(Oc3ccc(NC(=O)C4(C(=O)Nc5ccc(F)cc5)CC4)cc3)c2cc1OC + CC1OCC2(CCN(c3cnc(Sc4ccnc(N)c4Cl)c(N)n3)CC2)C1N has IC50 of 2.21

Per the reported 885724-159-R-J1-PDC KRAS PDC multicell spheroid viability data, CC(C)n1nc(-c2ccc3oc(N)nc3c2)c2c(N)ncnc21 + C=CC(=O)N1CCN(c2nc(=O)n(-c3c(C)ccnc3C(C)C)c3nc(-c4c(O)cccc4F)c(F)cc23)C(C)C1 has IC50 of 0.0039

---

Assignment: determine reported viability, T/C for the given compounds.
test system: 885724-159-R-J1-PDC KRAS PDC multicell spheroid viability; test: Anticancer human tumor 885724-159-R-J1-PDC cell line growth inhibition [KRAS2]; conditions: second compound 0.316 µM; first compound 0.0001 µM; stronger effect = lower value;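 also: spheroids exposed to agents for 7 days before readout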

The reported value for CC(=O)Nc1cccc(-n2c(=O)n(C3CC3)c(=O)c3c(Nc4ccc(I)cc4F)n(C)c(=O)c(C)c32)c1 + COc1cc2nc(C)nc(NC(C)c3cc(N)cc(C(F)(F)F)c3)c2cc1OC1CCOC1 in terms of viability, T/C is 87.2%

The reported value for CC(=O)Nc1cccc(-n2c(=O)n(C3CC3)c(=O)c3c(Nc4ccc(I)cc4F)n(C)c(=O)c(C)c32)c1 + C=CC(=O)N1CCN(c2nc(OCC3CCCN3C)nc3c2CCN(c2cccc4cccc(C)c24)C3)CC1CC#N in terms of viability, T/C is 92.6%

The reported value for CC(=O)Nc1cccc(-n2c(=O)n(C3CC3)c(=O)c3c(Nc4ccc(I)cc4F)n(C)c(=O)c(C)c32)c1 + C=CC(=O)N1CCN(c2nc(=O)n(-c3c(C)ccnc3C(C)C)c3nc(-c4c(O)cccc4F)c(F)cc23)C(C)C1 in terms of viability, T/C is 114%

The reported value for CC(=O)Nc1cccc(-n2c(=O)n(C3CC3)c(=O)c3c(Nc4ccc(I)cc4F)n(C)c(=O)c(C)c32)c1 + CNCc1ccccc1-c1csc(C(C)Nc2nc(C)nc3cc(OC)c(OC)cc23)c1 in terms of viability, T/C is 90.4%

The reported value for CC(=O)Nc1cccc(-n2c(=O)n(C3CC3)c(=O)c3c(Nc4ccc(I)cc4F)n(C)c(=O)c(C)c32)c1 + CC1OCC2(CCN(c3cnc(Sc4ccnc(N)c4Cl)c(N)n3)CC2)C1N in terms of viability, T/C is 73.6%
